Biological target: K63-linked diubiquitin (UniProt P0CG48)
Assay: fluorescence anisotropy
pKd: −log10 of the molar value.
Readings of pKd for the listed substances

SUBSTANCE	pKd
Rap80_ARLEEKV (peptide)	4.77
Rap80_DLKAAIQ (peptide)	5.00

###

Target: K48-linked diubiquitin (UniProt P0CG48)
Test: fluorescence anisotropy

SUBSTANCE	Kd (µM)
Rap80_DLKAAIQ (peptide)	129
Rap80_ARLEEKV (peptide)	230
